- System: H. influ. 76
- ASSAY INFO: standard in vitro agar dilution assay (MIC)
- Assay type: cell-based
- RECORDED CONDITIONS: H. influ. strain 76; read-out: Agar Dilution MIC
QUANTITY KIND: MIC (µg/mL)
Write the answer as a number in µg/mL, unit excluded.

get_value(item= CCc1nc2c[n+](CC3=C(C(=O)[O-])N4C(=O)C(NC(=O)/C(=N\OC)c5csc(N)n5)C4SC3)ccc2s1 (stereo not drawn) [Example 14] , readout=MIC) returns 0.015

get_value(item= CO/N=C(\C(=O)NC1C(=O)N2C(C(=O)[O-])=C(C[n+]3ccc4[nH]cnc4c3)CSC12)c1csc(N)n1 (stereo not drawn) [Example 2] , readout=MIC) returns 0.015

get_value(item= CO/N=C(\C(=O)NC1C(=O)N2C(C(=O)[O-])=C(C[n+]3ccc4nc(C)sc4c3)CSC12)c1csc(N)n1 (stereo not drawn) [Example 16] , readout=MIC) returns 0.015

get_value(item= CO/N=C(\C(=O)NC1C(=O)N2C(C(=O)[O-])=C(C[n+]3ccc4sc(C)nc4c3)CSC12)c1csc(N)n1 (stereo not drawn) [Example 13] , readout=MIC) returns 0.03

get_value(item= CO/N=C(\C(=O)NC1C(=O)N2C(C(=O)[O-])=C(C[n+]3ccc4nc(C)n(C)c4c3)CSC12)c1csc(N)n1 (stereo not drawn) [Example 7] , readout=MIC) returns 0.03

get_value(item= CO/N=C(\C(=O)NC1C(=O)N2C(C(=O)[O-])=C(C[n+]3ccc4[nH]c(C)nc4c3)CSC12)c1csc(N)n1 (stereo not drawn) [Example 5] , readout=MIC) returns 0.015

====

- System: Staph. aureus S13E
- ASSAY INFO: microbe, parasite or virus in culture
- Format: cell-based
- RECORDED CONDITIONS: Staphylococcus aureus, read-out: Agar Dilution MIC
QUANTITY KIND: MIC (µg/mL)
Write the answer as a number in µg/mL, unit excluded.

get_value(item= CO/N=C(\C(=O)NC1C(=O)N2C(C(=O)[O-])=C(C[n+]3ccc4c(c3)nc(C)n4C)CSC12)c1csc(N)n1 (stereo not drawn) , readout=MIC) returns 8

get_value(item= CC(C)(O/N=C(\C(=O)NC1C(=O)N2C(C(=O)[O-])=C(C[n+]3ccc4[nH]cnc4c3)CSC12)c1csc(N)n1)C(=O)O (stereo not drawn) , readout=MIC) returns 32

get_value(item= CO/N=C(\C(=O)NC1C(=O)N2C(C(=O)[O-])=C(C[n+]3cccc4oc(N)nc43)CSC12)c1csc(N)n1 (stereo not drawn) , readout=MIC) returns 4

====

- System: Staph. aureus X400
- ASSAY INFO: standard in vitro agar dilution assay (MIC)
- Assay type: cell-based
- RECORDED CONDITIONS: Staphylococcus aureus; Staph. aureus strain X400
QUANTITY KIND: log10(MIC) (log10 of the value in µg/mL)
The figures below represent log10 of MIC, where MIC is stated in µg/mL.

get_value(item= CO/N=C(\C(=O)NC1C(=O)N2C(C(=O)[O-])=C(C[n+]3ccc4nc(C)sc4c3)CSC12)c1csc(N)n1 (centres unmarked) , readout=log10(MIC)) returns 0.90

get_value(item= CO/N=C(\C(=O)NC1C(=O)N2C(C(=O)[O-])=C(C[n+]3ccc4[nH]c(C)nc4c3)CSC12)c1csc(N)n1 (centres unmarked) , readout=log10(MIC)) returns 1.51

get_value(item= CO/N=C(\C(=O)NC1C(=O)N2C(C(=O)[O-])=C(C[n+]3ccc4c(c3)ncn4C)CSC12)c1csc(N)n1 (centres unmarked) , readout=log10(MIC)) returns 1.81

get_value(item= CCc1nc2c[n+](CC3=C(C(=O)[O-])N4C(=O)C(NC(=O)/C(=N\OC)c5csc(N)n5)C4SC3)ccc2s1 (centres unmarked) , readout=log10(MIC)) returns 1.51

get_value(item= CC(C)(O/N=C(\C(=O)NC1C(=O)N2C(C(=O)[O-])=C(C[n+]3ccc4[nH]cnc4c3)CSC12)c1csc(N)n1)C(=O)O (centres unmarked) , readout=log10(MIC)) returns 2.11

get_value(item= CO/N=C(\C(=O)NC1C(=O)N2C(C(=O)[O-])=C(C[n+]3cccc4oc(N)nc43)CSC12)c1csc(N)n1 (centres unmarked) , readout=log10(MIC)) returns 1.51

get_value(item= CO/N=C(\C(=O)NC1C(=O)N2C(C(=O)[O-])=C(C[n+]3ccc4ncn(C)c4c3)CSC12)c1csc(N)n1 (centres unmarked) , readout=log10(MIC)) returns 1.81

get_value(item= CO/N=C(\C(=O)NC1C(=O)N2C(C(=O)[O-])=C(C[n+]3ccc4nc(C(C)(C)C)sc4c3)CSC12)c1csc(N)n1 (centres unmarked) , readout=log10(MIC)) returns 1.51

get_value(item= CO/N=C(\C(=O)NC1C(=O)N2C(C(=O)[O-])=C(C[n+]3ccc4[nH]cnc4c3)CSC12)c1csc(N)n1 (centres unmarked) , readout=log10(MIC)) returns 1.81

get_value(item= CO/N=C(\C(=O)NC1C(=O)N2C(C(=O)[O-])=C(C[n+]3ccc4[nH]c(-c5cccs5)nc4c3)CSC12)c1csc(N)n1 (centres unmarked) , readout=log10(MIC)) returns 1.51

get_value(item= CC(C)(O/N=C(\C(=O)N[C@@H]1C(=O)N2C(C(=O)[O-])=C(C[n+]3ccccc3)CS[C@H]12)c1csc(N)n1)C(=O)O [Ceftazidime, ceftazidime, reference compound] , readout=log10(MIC)) returns 2.11

get_value(item= CO/N=C(\C(=O)NC1C(=O)N2C(C(=O)[O-])=C(C[n+]3ccc4[nH]c(-c5ccccc5)nc4c3)CSC12)c1csc(N)n1 (centres unmarked) , readout=log10(MIC)) returns 1.51

get_value(item= CO/N=C(\C(=O)NC1C(=O)N2C(C(=O)[O-])=C(C[n+]3ccc4oc(C)nc4c3)CSC12)c1csc(N)n1 (centres unmarked) , readout=log10(MIC)) returns 1.51

get_value(item= CO/N=C(\C(=O)NC1C(=O)N2C(C(=O)[O-])=C(C[n+]3ccc4sc(C)nc4c3)CSC12)c1csc(N)n1 (centres unmarked) , readout=log10(MIC)) returns 1.51

get_value(item= CO/N=C(\C(=O)NC1C(=O)N2C(C(=O)[O-])=C(C[n+]3ccc4scnc4c3)CSC12)c1csc(N)n1 (centres unmarked) , readout=log10(MIC)) returns 0.30

get_value(item= CO/N=C(\C(=O)NC1C(=O)N2C(C(=O)[O-])=C(C[n+]3ccc4c(c3)nc(C)n4C)CSC12)c1csc(N)n1 (centres unmarked) , readout=log10(MIC)) returns 1.51

get_value(item= CO/N=C(\C(=O)NC1C(=O)N2C(C(=O)[O-])=C(C[n+]3ccc4nc(C)n(C)c4c3)CSC12)c1csc(N)n1 (centres unmarked) , readout=log10(MIC)) returns 2.11
